Form field: cAMP Rel EC50 (1% HSA) (one value per entry).
MEASURED TARGET: human glucagon receptor (human) (UniProt P47871)
Sequence (P47871 26-477): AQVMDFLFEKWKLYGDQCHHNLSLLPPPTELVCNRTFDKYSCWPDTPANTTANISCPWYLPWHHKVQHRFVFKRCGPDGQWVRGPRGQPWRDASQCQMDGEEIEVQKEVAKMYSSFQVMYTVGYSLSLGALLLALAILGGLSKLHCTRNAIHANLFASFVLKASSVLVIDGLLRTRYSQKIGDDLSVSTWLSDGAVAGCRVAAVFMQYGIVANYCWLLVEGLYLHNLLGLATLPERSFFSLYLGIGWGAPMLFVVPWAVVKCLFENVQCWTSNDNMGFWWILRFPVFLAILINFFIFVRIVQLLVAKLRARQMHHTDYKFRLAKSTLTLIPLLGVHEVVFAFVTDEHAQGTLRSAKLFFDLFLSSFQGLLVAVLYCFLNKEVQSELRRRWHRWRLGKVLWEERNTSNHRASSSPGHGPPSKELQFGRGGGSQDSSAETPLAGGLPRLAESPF
EXPERIMENTAL PROTOCOL: cell-based or functional assay
Record the result as a number with its unit.

Past entries and their recorded results:
## Input So what's the measured cAMP Rel EC50 (1% HSA) for this one? YXQGTFTSDFSXXLDKKAQXAFIEYLIEXGPSSGAPPPSGS (synthetic construct; SITE 2: note = 2-Aminoisobutyric Acid; SITE 12: note = (S)-2,4-diaminobutanoic acid; SITE 13: note = alpha-methyl-leucine; SITE 17: note = Lysine is chemically modified through conjugation of the epsilon-amino group of the Lysine side chain with (2-[2-(2-Amino-ethoxy)-ethoxy]-ac)) [Example 799]
## Output 0.574 µM

## Input So what's the measured cAMP Rel EC50 (1% HSA) for this one? YXQGTFTSDXSQXLDKKAQXAFIEYLIEXGPSSGAPPPSGS (Aib, 4Pal, αMeL, Me4Pal; acylated Lys; C-terminal amide; synthetic construct; SITE 2: note = 2-Aminoisobutyric Acid; SITE 10: note = 3-(4-Pyridyl)-L-alanine; SITE 13: note = alpha-methyl-leucine; SITE 17: note = Lysine is chemically modified through conjugation of the epsilon-amino group of the Lysine side chain with (D-Glutamic acid)2-(gamma-Glu)-CO-(CH2)) [Example 921]
## Output 2.13 µM

## Input So what's the measured cAMP Rel EC50 (1% HSA) for this one? YXQGTFTSDFSXXLDXKAQXAFIEXLLEGGPSSGAPPPGGSEE (non-natural residues; Lys acylated C18 diacid via γGlu2; C-term amide; synthetic construct; SITE 2: note = 2-Aminoisobutyric Acid; SITE 12: note = L-ornithine; SITE 13: note = alpha-methyl-leucine; SITE 16: note = L-ornithine; SITE 17: note = Lysine is chemically modified through conjugation of the epsilon-amino group of the Lysine side chain with (gamma-Glu)2-CO-(CH2)) [Example 1050]
## Output 2.04 µM

## Input So what's the measured cAMP Rel EC50 (1% HSA) for this one? YXQGTFTSDFSKXLDKKAQXAFIEYLIEXSPSSGAPPPSGS (synthetic construct; SITE 2: note = 2-Aminoisobutyric Acid; SITE 13: note = alpha-methyl-leucine; SITE 17: note = Lysine is chemically modified through conjugation of the epsilon-amino group of the Lysine side chain with (2-[2-(2-Amino-ethoxy)-ethoxy]-acetyl)-(gamma-Glu)-CO-(CH2) 16-CO2H; SITE 20: n) [Example 805]
## Output 1.21 µM

## Input So what's the measured cAMP Rel EC50 (1% HSA) for this one? YXQGTFTSDXSQXLDXKAQXAFIEXLIAGGPSSGAPPPSGSEE (non-natural residues; C18 diacid-γ-Glu acyl on Lys; C-terminal amide; synthetic construct; SITE 2: note = 2-Aminoisobutyric Acid; SITE 10: note = 3-(4-Pyridyl)-L-alanine; SITE 13: note = alpha-methyl-leucine; SITE 16: note = L-ornithine; SITE 17: note = Lysine is chemically modified through conjugation of the epsilon-amino group of the Lysine side chain with D-Glutami) [Example 1074]
## Output 1.99 µM

# next binder below
## Input So what's the measured cAMP Rel EC50 (1% HSA) for this one? YXQGTXTSDXXIXLDXKAQXXFIEYLIEGGPSSGEPPPSGTE (not fully specified; printed without C-terminal amide; synthetic construct; SITE 2: note = 2-Aminoisobutyric Acid; SITE 6: note = alpha-methyl-2-fluoro-L-phenylalanine; SITE 10: note = 3-(4-Pyridyl)-L-alanine; SITE 11: note = alpha-methyl-L-serine; SITE 13: note = alpha-methyl-leucine; SITE 16: note = L-ornithine; SITE 17: note = Lysine is chemically mo) [Example 522]
## Output 0.441 µM

Provenance of the data: patent US20240270821A1
